target: EGFR wildtype (WT) (Homo sapiens, UniProt P00533)
Sequence (P00533 25-1210): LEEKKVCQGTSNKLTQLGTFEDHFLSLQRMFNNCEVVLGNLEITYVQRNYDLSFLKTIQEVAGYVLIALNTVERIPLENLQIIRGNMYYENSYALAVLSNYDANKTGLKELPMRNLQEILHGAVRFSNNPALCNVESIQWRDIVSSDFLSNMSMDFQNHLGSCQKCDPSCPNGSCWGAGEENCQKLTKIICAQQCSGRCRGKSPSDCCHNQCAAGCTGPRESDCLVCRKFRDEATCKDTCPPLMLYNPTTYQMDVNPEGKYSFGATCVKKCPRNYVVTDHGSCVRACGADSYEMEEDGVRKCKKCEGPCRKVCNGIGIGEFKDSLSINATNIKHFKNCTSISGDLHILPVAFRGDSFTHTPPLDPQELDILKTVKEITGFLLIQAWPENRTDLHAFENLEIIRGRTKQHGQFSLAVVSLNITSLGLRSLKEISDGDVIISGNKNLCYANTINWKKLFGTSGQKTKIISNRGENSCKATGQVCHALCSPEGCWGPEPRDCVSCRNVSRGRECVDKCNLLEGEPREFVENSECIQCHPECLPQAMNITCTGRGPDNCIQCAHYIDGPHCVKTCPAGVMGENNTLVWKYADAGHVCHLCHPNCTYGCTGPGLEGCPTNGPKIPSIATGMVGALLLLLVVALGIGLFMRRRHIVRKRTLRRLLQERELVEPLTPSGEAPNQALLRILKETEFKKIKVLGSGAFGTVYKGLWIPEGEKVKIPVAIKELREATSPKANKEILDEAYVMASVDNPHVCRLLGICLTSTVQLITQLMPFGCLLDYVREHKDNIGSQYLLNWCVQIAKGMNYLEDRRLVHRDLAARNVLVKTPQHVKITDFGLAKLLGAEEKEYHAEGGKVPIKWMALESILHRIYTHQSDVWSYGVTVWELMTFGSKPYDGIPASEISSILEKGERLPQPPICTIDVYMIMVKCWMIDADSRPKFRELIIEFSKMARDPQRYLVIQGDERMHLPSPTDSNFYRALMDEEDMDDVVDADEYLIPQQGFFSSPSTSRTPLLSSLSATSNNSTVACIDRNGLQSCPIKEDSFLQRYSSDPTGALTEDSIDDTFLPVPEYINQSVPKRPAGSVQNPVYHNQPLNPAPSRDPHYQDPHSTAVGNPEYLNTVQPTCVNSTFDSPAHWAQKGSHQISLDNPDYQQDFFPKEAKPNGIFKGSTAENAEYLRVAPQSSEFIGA
method.description: Biochemical EGFR kinase inhibition assay (Lance Ultra TR-FRET), wildtype
condition: Km ATP; read-out: IC50 WT (nM), Km ATP
Please note: IC50 exactly at 50 nM is no. Only values below 50 nM get yes.

- CC1(O)CC2(CCN(c3cc(Nc4ccnc(-c5cnn(S(=O)(=O)C6CC6)c5)n4)ncc3C#Cc3cnn(CC(F)(F)F)c3)CC2)C1 [Example 347]: no
- O=S(=O)(C1CC1)n1cc(-c2nccc(Nc3cc(NC4CCC(CO)CC4)c(C#CC4(F)CCOC4)cn3)n2)cn1 (centres unmarked) [Example 434]: yes
- CC1(CO)CCN(c2cc(Nc3ccnc(-c4cnn(S(=O)(=O)C5CC5)c4)n3)ncc2C#CC2(O)CCCOC2)CC1 (centres unmarked) [Example 357]: yes

Exam item: Record O=S(=O)(C1CC1)N1CCC(C#Cc2cnc(Nc3ccnc(-c4cnn(S(=O)(=O)C5CC5)c4)n3)cc2NC2CCC(O)CC2)C1 (centres unmarked) [Example 394] : is its IC50 strictly below 50 nM?
Marked response: yes

Exam item: Is 50 nM strictly greater than the molecule's reported IC50? molecule: O=S(=O)(C1CC1)n1cc(-c2nccc(Nc3cc(N4CCC(F)(CO)CC4)c(C#Cc4cnn(C(F)(F)F)c4)cn3)n2)cn1 [Example 338]
Marked response: no

Exam item: Please determine if CC1OCCC1C#Cc1cnc(Nc2ccnc(-c3cnn(S(=O)(=O)C4CC4)c3)n2)cc1NC1CCC(O)CC1 (centres unmarked) [Example 433] is below 50 nM in terms of IC50.
Marked response: yes

Exam item: I'd appreciate it if you could check whether CC1(CO)CCN(c2cc(Nc3ccnc(-c4cnn(S(=O)(=O)C5CC5)c4)n3)ncc2C#Cc2cnn(CC(F)(F)F)c2)CC1 [Example 348] has IC50 smaller than 50 nM.
Marked response: yes

Exam item: Regarding O=S(=O)(C1CC1)n1cc(-c2nccc(Nc3cc(N[C@H]4CC[C@@H](CO)CC4)c(C#Cc4cnn(CCF)c4)cn3)n2)cn1 [Example 379] , kindly confirm whether its IC50 is beneath 50 nM.
Marked response: yes

Exam item: Consider the molecule CS(=O)(=O)N1CCC(C#Cc2cnc(Nc3ccnc(-c4cnn(S(=O)(=O)C5CC5)c4)n3)cc2NC2CCC(O)CC2)C1 (centres unmarked) [Example 399] . Is its IC50 strictly less than 50 nM?
Marked response: yes

Exam item: In the record for CC1(O)CCN(c2cc(Nc3ccnc(-c4cnn(S(=O)(=O)C5CC5)c4)n3)ncc2C#CC2(C)CC2)CC1 [Example 404] , is IC50 less than 50 nM?
Marked response: yes

Exam item: Strictly below 50 nM: is that where IC50 of O=S(=O)(C1CC1)n1cc(-c2nccc(Nc3cc(N4[C@@H]5CC[C@H]4C[C@H](CO)C5)c(C#Cc4cnn(C(F)(F)F)c4)cn3)n2)cn1 [Example 332] sits?
Marked response: no

Exam item: Just wondering, is IC50 of O=S(=O)(C1CC1)n1cc(-c2nccc(Nc3cc(N4CCC[C@@H](O)C4)c(C#Cc4cnn(CCF)c4)cn3)n2)cn1 [Example 440] below 50 nM?
Marked response: yes

====

target: EGFR wildtype (WT) (Homo sapiens, UniProt P00533)
method.description: Biochemical EGFR kinase inhibition assay (Lance Ultra TR-FRET), wildtype
condition: IC50 WT (nM), 100 μM ATP
Exercise: state measured IC50 for each of the molecules provided.

Use these answered entries as a reference point.
* O=S(=O)(C1CC1)n1cc(-c2nccc(Nc3cc(N[C@H]4CC[C@@H](CO)CC4)c(C#Cc4cnn(CCF)c4)cn3)n2)cn1 [Example 379] | > 10000 nM
* CC1(CO)CCN(c2cc(Nc3ccnc(-c4ccc(F)nc4)n3)ncc2C#Cc2cnn(C(F)(F)F)c2)CC1 [Example 269] | > 10000 nM
* CC1OCCC1C#Cc1cnc(Nc2ccnc(-c3cnn(S(=O)(=O)C4CC4)c3)n2)cc1NCC1CCC(O)CC1 (centres unmarked) [Example 431] | > 10000 nM
* O=S(=O)(C1CC1)n1cc(-c2nccc(Nc3cc(N[C@H]4CC[C@@H](O)CC4)c(C#CC4C[C@@H]5CC[C@@H]4O5)cn3)n2)cn1 (some centres unmarked) [Example 427] | > 10000 nM
* O=S(=O)(C1CC1)n1cc(-c2nccc(Nc3cc(N[C@H]4CC[C@@H](CO)CC4)c(C#Cc4cnn(C(F)F)c4)cn3)n2)cn1 [Example 308] | > 10000 nM
* Cc1nc(C#Cc2cnc(Nc3ccnc(-c4cnn(S(=O)(=O)C5CC5)c4)n3)cc2N[C@H]2CC[C@H](O)C2)cs1 [Example 222] | > 10000 nM
* CN(C)CCNC1CCN(c2cc(Nc3ccnc(-c4cnn(S(=O)(=O)C5CC5)c4)n3)ncc2C#Cc2cnn(C3CCOCC3)c2)CC1 [Example 138] | 2940 nM
* Cn1cc(C#Cc2cnc(Nc3ccnc(-c4cnn(S(=O)(=O)C5CC5)c4)n3)cc2N2CCC(NCCF)CC2)cn1 [Example 129] | > 10000 nM

For each of the molecules below, state IC50.
1. CN(C)C[C@H]1CC[C@@H](Nc2cc(Nc3ccnc(-c4cnn(S(=O)(=O)C5CC5)c4)n3)ncc2C#Cc2cnn(CC3CC3)c2)CC1 [Example 309]
2. CC1(CO)CCN(c2cc(Nc3ccnc(-c4cnn(S(=O)(=O)C5CC5)c4)n3)ncc2C#Cc2cnn(C3CC3)c2)CC1 [Example 47]
3. CN1CCN(Cc2ccc(C#Cc3cnc(Nc4ccnc(-c5cnn(S(=O)(=O)C6CC6)c5)n4)cc3NC[C@H]3CC[C@](C)(O)CC3)cc2)CC1 [Example 363]
4. CC1(CO)CCN(c2cc(Nc3ccnc(-c4cnn(S(=O)(=O)C5CC5)c4)n3)ncc2C#Cc2ncc(CN3CCOCC3)cn2)CC1 [Example 193]
5. CN(C)CC1CCN(c2cc(Nc3ccnc(-c4cnn(S(=O)(=O)C5CC5)c4)n3)ncc2C#Cc2cnn(C3CC3)c2)CC1 [Example 298]

Marked response:
1. 7630 nM
2. 1740 nM
3. > 10000 nM
4. 1270 nM
5. > 10000 nM

Required: IC50, one value per molecule below.
1. CC(C)Nc1cc(Nc2ccnc(-c3cnn(S(=O)(=O)C4CC4)c3)n2)ncc1C#Cc1cnn(CCF)c1 [Example 20]
2. Cn1cc(C#Cc2cnc(Nc3ccnc(-c4cnn(S(=O)(=O)C5CC5)c4)n3)cc2N2CCC(NCC(F)(F)F)CC2)cn1 [Example 135]
3. O=S(=O)(C1CC1)n1cc(-c2nccc(Nc3cc(N4CCC[C@@H](O)C4)c(C#Cc4cnn(CCF)c4)cn3)n2)cn1 [Example 440]
4. C[C@H](CCO)Nc1cc(Nc2ccnc(-c3cnn(S(=O)(=O)C4CC4)c3)n2)ncc1C#Cc1cnn(C)c1 [Example 4]

Marked response:
["> 10000 nM", "> 10000 nM", "> 10000 nM", "> 10000 nM"]

Quick batch: IC50 for everything below.
1. CNC1CCN(c2cc(Nc3ccnc(-c4cnn(S(=O)(=O)C5CC5)c4)n3)ncc2C#Cc2ccn(C)n2)CC1 [Example 140]
2. Cn1cc(C#Cc2cnc(Nc3ccnc(-c4cnn(S(=O)(=O)C5CC5)c4)n3)cc2NC2CCCC(F)C2)cn1 (centres unmarked) [Example 74]
3. O=S(=O)(C1CC1)n1cc(-c2nccc(Nc3cc(N4CCCC(O)C4)c(C#Cc4cnn(C5CCOCC5)c4)cn3)n2)cn1 (centres unmarked) [Example 99]
4. CN(C)C[C@H]1CC[C@@H](Nc2cc(Nc3ccnc(-c4cnn(S(=O)(=O)C5CC5)c4)n3)ncc2C#Cc2cnn(C3CC3)c2)CC1 [Example 313]
5. Cn1cc(C#Cc2cnc(Nc3ccnc(-c4cnn(S(=O)(=O)C5CC5)c4)n3)cc2N2CCC(C(C)(C)O)CC2)cn1 [Example 11]
6. O=S(=O)(C1CC1)n1cc(-c2nccc(Nc3cc(NC4CCC(O)CC4)c(C#Cc4cnn(C5CC5(F)F)c4)cn3)n2)cn1 (centres unmarked) [Example 85]
7. CN(C)C(=O)c1ccc(C#Cc2cnc(Nc3ccnc(-c4cnn(S(=O)(=O)C5CC5)c4)n3)cc2N2CCC(C)(CO)CC2)cc1 [Example 262]
8. CS(=O)(=O)N1CCC(C#Cc2cnc(Nc3ccnc(-c4cnn(S(=O)(=O)C5CC5)c4)n3)cc2NC2CCC(CO)CC2)C1 (centres unmarked) [Example 397]

Marked response:
["> 10000 nM", "> 10000 nM", "> 10000 nM", "4690 nM", "> 10000 nM", "> 10000 nM", "> 10000 nM", "> 10000 nM"]

Exam item: Recorded IC50 for CN(C)CC1(C)CCN(c2cc(Nc3ccnc(-c4cnn(S(=O)(=O)C5CC5)c4)n3)ncc2C#Cc2cnn(CC(F)F)c2)CC1 [Example 302] , please?
Marked response: 2690 nM
